test system: PC12 cells; experiment: Reversal of Aβ1-42-induced ATP depletion (ATPLite-M assay); settings: compound 10 μM, 24 h pre-incubation; Aβ1-42 10 μM, 24 h
measured_quantity: ATP decrease induced by Aβ1-42, Aβ1-42 control = 100% reduction (%)
# output: bare number, implied unit %

CC(=O)OC1CC(O)C2(C)C(OC(C)=O)C3C(CC(C)C12)OC(=O)C3CN1CCN(C(=O)c2ccccc2)CC1 (stereo not shown) yielded ATP decrease induced by Aβ1-42, Aβ1-42 control = 100% reduction of 104

CCN(CC)CCOC(=O)c1ccc(N)cc1 yielded ATP decrease induced by Aβ1-42, Aβ1-42 control = 100% reduction of 89.8

CC(=O)OC1CC(OC(C)=O)C2(C)C(O)C3C(CC(C)C12)OC(=O)C3CN1CCN(C(=O)c2ccccc2)CC1 (stereo not shown) yielded ATP decrease induced by Aβ1-42, Aβ1-42 control = 100% reduction of 110

CC1=CCC23OC2(C)CCC2C(CN4CCN(C(=O)c5ccccc5)CC4)C(=O)OC2C13 (stereo not shown) yielded ATP decrease induced by Aβ1-42, Aβ1-42 control = 100% reduction of 68.9

CCN(CC)CC(=O)Nc1c(C)cccc1C yielded ATP decrease induced by Aβ1-42, Aβ1-42 control = 100% reduction of 65.0

CCCCNc1ccc(C(=O)OCCN(C)C)cc1 yielded ATP decrease induced by Aβ1-42, Aβ1-42 control = 100% reduction of 41.9

CCN(CC)CCNC(=O)c1ccc(N)cc1 [Procainamide] yielded ATP decrease induced by Aβ1-42, Aβ1-42 control = 100% reduction of 56.2

Reference source for all entries: patent US20090286876A1
